These entries and their values trace back to patent EP2848929A1.

# TARGET: OBP14 (Apis mellifera, UniProt A0A8U0WQC3)
# Sequence (A0A8U0WQC3 entry or part of it): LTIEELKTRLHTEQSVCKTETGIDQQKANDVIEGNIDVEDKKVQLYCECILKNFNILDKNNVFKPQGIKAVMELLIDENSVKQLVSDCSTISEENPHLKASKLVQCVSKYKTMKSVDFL
# PROCEDURE SUMMARY: biochemical
# Assay type: binding, honeybees
# PARTICULARS: read-out: 10^-6 [KD] /M
EXPERIMENTAL READOUT: pKd
Please keep in mind that pKd is minus log10 of the molar concentration; only the number is needed.

Ask: For COc1cc(CCC(C)=O)ccc1O [Vanillyl acetone, 4-(4-hydroxy-3-methoxyphenyl)butan-2-one] , what is its reported pKd?
Result: 4.61
